# ASSAY_COMMENT: Metabolic stability in human plasma assessed as compound degradation at 2 uM measured after 30 mins by LC-ESI/MS analysis
# Format: ADME, cell-free
# RUN_CONDITIONS: 0.5 h
READOUT_NAME: Stability

{"SMILES_STR": "CC[C@H](C)[C@@H]1NC(=O)[C@@H](CC(C)C)NC(=O)[C@H](Cc2ccccc2)NC(=O)[C@@H]2CCCN2C(=O)[C@@H](Cc2ccccc2)NC(=O)[C@H](CC(C)C)NC1=O", "READOUT_NAME": "Stability", "READOUT_VALUE": "Stable"}
{"SMILES_STR": "CC[C@H](C)[C@@H]1NC(=O)[C@@H](CC(C)C)NC(=O)[C@H](CC(C)C)NC(=O)[C@@H]2CCCN2C(=O)[C@@H](Cc2ccccc2)NC(=O)[C@H](CC(C)C)NC1=O", "READOUT_NAME": "Stability", "READOUT_VALUE": "Stable"}
{"SMILES_STR": "CC(C)C[C@@H]1NC(=O)[C@H](C(C)C)NC(=O)[C@@H](CC(C)C)NC(=O)[C@H](CC(C)C)NC(=O)[C@H]2CCCN2C(=O)[C@@H](Cc2ccccc2)NC1=O", "READOUT_NAME": "Stability", "READOUT_VALUE": "Stable"}

* * *

# ASSAY_COMMENT: Thermodynamic aqueous solubility of the compound at 2 mM and pH 7.4 measured after 20 hrs by HPLC analysis
# Assay type: physicochemical
# RUN_CONDITIONS: aqueous medium, read-out: Therm_solubility
READOUT_NAME: solubility thermodynamic at 20 h, 2000 µM (µg/mL)

{"SMILES_STR": "CC[C@H](C)[C@@H]1NC(=O)[C@@H](CC(C)C)NC(=O)[C@H](CC(C)C)NC(=O)[C@@H]2CCCN2C(=O)[C@@H](Cc2ccccc2)NC(=O)[C@H](CC(C)C)NC1=O", "READOUT_VALUE": 60}
{"SMILES_STR": "CC[C@H](C)[C@@H]1NC(=O)[C@@H](CC(C)C)NC(=O)[C@H](CC(C)C)NC(=O)[C@H]2CCCN2C(=O)[C@@H](Cc2ccccc2)NC(=O)[C@H](CC(C)C)NC1=O", "READOUT_VALUE": 70}
{"SMILES_STR": "CC(C)C[C@@H]1NC(=O)[C@H](C(C)C)NC(=O)[C@@H](CC(C)C)NC(=O)[C@H](CC(C)C)NC(=O)[C@H]2CCCN2C(=O)[C@@H](Cc2ccccc2)NC1=O", "READOUT_VALUE": 150}
{"SMILES_STR": "CC(C)C[C@@H]1NC(=O)[C@H](C(C)C)NC(=O)[C@@H](CC(C)C)NC(=O)[C@H](Cc2ccccc2)NC(=O)[C@@H]2CCCN2C(=O)[C@@H](Cc2ccccc2)NC1=O", "READOUT_VALUE": 50}
{"SMILES_STR": "CC(C)C[C@@H]1NC(=O)[C@H](C(C)C)NC(=O)[C@@H](CC(C)C)NC(=O)[C@H](Cc2ccccc2)NC(=O)[C@H]2CCCN2C(=O)[C@@H](Cc2ccccc2)NC1=O", "READOUT_VALUE": 70}

* * *

# ASSAY_COMMENT: Thermodynamic aqueous solubility of the compound at 2 mM and pH 7.4 measured after 20 hrs by HPLC analysis
# Type: physicochemical
# RUN_CONDITIONS: aqueous medium, read-out: Therm_solubility
READOUT_NAME: solubility thermodynamic at 20 h, 2000 µM (µg/mL)

{"SMILES_STR": "CC[C@H](C)[C@@H]1NC(=O)[C@@H](CC(C)C)NC(=O)[C@H](Cc2ccccc2)NC(=O)[C@H]2CCCN2C(=O)[C@@H](Cc2ccccc2)NC(=O)[C@H](CC(C)C)NC1=O", "READOUT_VALUE": 30}
{"SMILES_STR": "CC(C)C[C@@H]1NC(=O)[C@H](C(C)C)NC(=O)[C@@H](CC(C)C)NC(=O)[C@H](CC(C)C)NC(=O)[C@@H]2CCCN2C(=O)[C@@H](Cc2ccccc2)NC1=O", "READOUT_VALUE": 170}
{"SMILES_STR": "CC[C@H](C)[C@@H]1NC(=O)[C@@H](CC(C)C)NC(=O)[C@H](Cc2ccccc2)NC(=O)[C@@H]2CCCN2C(=O)[C@@H](Cc2ccccc2)NC(=O)[C@H](CC(C)C)NC1=O", "READOUT_VALUE": 10}
